biological target: Carbonic anhydrase 3 (Homo sapiens)
Sequence (P07451 whole entry): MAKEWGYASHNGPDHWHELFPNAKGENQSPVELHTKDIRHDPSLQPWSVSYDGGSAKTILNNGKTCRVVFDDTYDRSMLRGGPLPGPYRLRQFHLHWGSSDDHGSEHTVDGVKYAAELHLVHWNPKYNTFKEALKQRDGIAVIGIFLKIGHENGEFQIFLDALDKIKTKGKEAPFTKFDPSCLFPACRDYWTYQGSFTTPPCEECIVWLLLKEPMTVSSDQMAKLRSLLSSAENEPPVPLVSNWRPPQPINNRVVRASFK
// reported Ki per item
The response must be a number in µM with no trailing unit.

Some solved entries appear below for comparison.
molecule: COc1cc(/C=C/C(=O)CC(=O)/C=C/c2ccc(O)c(OC)c2)ccc1O [CURCUMIN]
unit of measurement: µM
Ki: 11.3

molecule: Oc1ccc(/C=C/c2cc(O)cc(O)c2)cc1 [RESVERATROL]
unit of measurement: µM
Ki: 9.09

molecule: Oc1cc(O)c2c(c1)O[C@H](c1ccc(O)c(O)c1)[C@@H](O)C2 [CATECHIN]
unit of measurement: µM
Ki: 3.58

Here's the next entry for you.
Reported Ki (Carbonic anhydrase 3 (Homo sapiens)) for entry CC(CCc1ccc(O)cc1)NCCc1ccc(O)c(O)c1 (stereo not given) [DOBUTAMINE] is 7.4

----------
# Ki per entry for Carbonic anhydrase 14 (Homo sapiens)
The figure you give is taken to be in µM; do not add the unit.

molecule: CC(CCc1ccc(O)cc1)NCCc1ccc(O)c(O)c1 (stereo not drawn) [DOBUTAMINE]
Ki / µM: 12

Ki value, target or system Carbonic anhydrase 14 (Homo sapiens), for COc1cc(/C=C/C(=O)CC(=O)/C=C/c2ccc(O)c(OC)c2)ccc1O [CURCUMIN] : 11.7

----------
Target: Carbonic anhydrase 15 (Mus musculus, UniProt Q99N23)
Sequence (Q99N23 whole entry): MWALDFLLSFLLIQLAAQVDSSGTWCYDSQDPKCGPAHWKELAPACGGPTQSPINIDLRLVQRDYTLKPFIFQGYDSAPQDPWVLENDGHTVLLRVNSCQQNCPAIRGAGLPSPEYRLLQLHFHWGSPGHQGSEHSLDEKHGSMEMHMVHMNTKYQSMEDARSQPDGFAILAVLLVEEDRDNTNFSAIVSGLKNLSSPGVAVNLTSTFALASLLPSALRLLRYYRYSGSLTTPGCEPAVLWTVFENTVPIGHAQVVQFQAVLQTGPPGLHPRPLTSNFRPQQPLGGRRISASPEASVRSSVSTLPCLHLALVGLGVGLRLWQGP
measurement kind: Ki (µM)
Quick note: give the figure in µM, leave out the unit.

compound: Oc1ccc(/C=C/c2cc(O)cc(O)c2)cc1 [RESVERATROL]
target desc: Carbonic anhydrase 15 (Mus musculus, UniProt Q99N23)
unit of measurement: µM
Ki: 9.36

compound: Oc1cc(O)c2c(c1)O[C@H](c1ccc(O)c(O)c1)[C@@H](O)C2 [CATECHIN]
target desc: Carbonic anhydrase 15 (Mus musculus, UniProt Q99N23)
unit of measurement: µM
Ki: 7.68

Note to self: Ki recorded for CC(CCc1ccc(O)cc1)NCCc1ccc(O)c(O)c1 (centres undefined) [DOBUTAMINE] was 0.39

----------
The reader will find pKi measurements below, all made with Carbonic anhydrase 2 (Homo sapiens).
Kindly note that pKi refers to -log10 of the concentration in mol/L and answer with the value alone.

compound: O=C(O)/C=C/c1ccccc1O
target desc: Carbonic anhydrase 2 (Homo sapiens)
pKi: 5.04

Moving on to the next compound.
Noted pKi for CC(CCc1ccc(O)cc1)NCCc1ccc(O)c(O)c1 (configuration not stated) , tested on Carbonic anhydrase 2 (Homo sapiens): 6.32

----------
// endpoint Ki / system UniProt P22748
Sequence (P22748 whole entry): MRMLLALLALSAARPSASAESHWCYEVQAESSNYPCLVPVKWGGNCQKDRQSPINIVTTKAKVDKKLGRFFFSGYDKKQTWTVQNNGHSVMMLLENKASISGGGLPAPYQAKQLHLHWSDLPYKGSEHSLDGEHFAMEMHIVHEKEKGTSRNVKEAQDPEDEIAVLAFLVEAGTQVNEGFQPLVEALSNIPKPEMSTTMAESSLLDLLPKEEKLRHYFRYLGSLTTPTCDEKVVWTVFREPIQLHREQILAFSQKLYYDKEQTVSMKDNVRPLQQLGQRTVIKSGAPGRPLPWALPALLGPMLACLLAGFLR
Return type: number; implicit unit µM.

compound: CC(CCc1ccc(O)cc1)NCCc1ccc(O)c(O)c1 (configuration not stated) [DOBUTAMINE]
target desc: UniProt P22748
Ki (µM): 8.98

Moving on to the next compound.
Lab note: compound O=C(O)/C=C/c1ccccc1O [O-COUMARIC ACID] tested on UniProt P22748; recorded Ki was 62.3
